Reference for the values: patent US20100099561A1

- Test system: umbrella sedge (Cyperus difformis)
- assay.notes: Test B flooded paddy test, umbrella sedge
- Format: in vivo
- condition: Flood, 250 g ai/ha; scale 0 to 100
assay.metric: Plant response rating, Sedge, Umbrella
Keep the answer to the number alone.

Recorded Plant response rating, Sedge, Umbrella for CC1(C)CC(S(=O)(=O)Cc2c(C(F)(F)F)nc3n(c2=O)CCCCC3)=NO1 [Compound 33] , please?
80

Recorded Plant response rating, Sedge, Umbrella for CC1(C)CC([S+]([O-])Cc2c(C(F)(F)F)nc3cccnn3c2=O)=NO1 (centres unmarked) [Compound 46] , please?
0

Recorded Plant response rating, Sedge, Umbrella for CC1(C)CC(S(=O)(=O)Cc2c(C(F)(F)F)nc3cccnn3c2=O)=NO1 [Compound 45] , please?
0
